Give measured growth for each item. Keep answers brief.
Test system: CAKI-1 renal
assayNotes: NCI-60 one-dose screen, 48 h (100 = growth as untreated, 0 = no growth, -100 = all killed)
conditionSet: 10 µM unless noted
About 83,000 compounds went through this panel and 20% of them were active in at least one assay; those are over-represented in the sample as a whole.
Give bare numbers, in %.

The examples below pair each entry with its known result.
Any idea what its growth is? The compound is COc1cccc(/C(C#N)=C/c2nc3c(N4CCOCC4)nc(Cl)nc3n2C)c1
-92.1

And what about the compound C=CCN1C(=O)/C(=c2\sc3n(c2=O)NC2C(N=3)N(CC)C(=O)N2CC)c2ccccc21 (centres undefined) ?
42.3

And what about the compound CS(=O)(=O)Nc1ccc(C(=O)NC(C(=O)NO)c2ccc(-c3cccc(F)c3)cc2)cc1 (centres undefined) ?
49.9

Please look at the items below and tell me growth for each one, in order.
1. COc1cc(CNC(=O)Cc2ccccc2)ccc1OCc1cn(-c2ccc(F)cc2)nn1
2. Cn1c(/C=C(\C#N)c2ccccc2)nc2c(N3CCOCC3)nc(Cl)nc21
3. COc1cccc(C(=O)NC(c2ccc(C)cc2)c2cc(Cl)c3cccnc3c2O)c1 (centres undefined)
4. O=c1oc2ccc(-c3ccc(F)cc3F)cc2c(=O)n1-c1cccc(C(F)(F)F)c1
5. CCN1C(=O)N(CC)C2C1NN=c1s/c(=C3\C(=O)N(C(C)C)c4ccccc43)c(=O)n12 (centres undefined)

1. 91.2
2. -96.9
3. -3.64
4. -12.6
5. 31.8

Any idea what its growth is? The compound is CCCC(c1nnnn1C1CCCCC1)N1CCN(C(=O)c2ccco2)CC1 (centres undefined)
66.4

###

Give measured growth for each item. Keep answers brief.
System: UACC-62 melanoma
assayNotes: NCI-60 one-dose screen, 48 h (100 = growth as untreated, 0 = no growth, -100 = all killed)
conditionSet: 10 µM unless noted
Compounds without any hit were thinned out: in the full panel of roughly 83,000, 20% have a hit.
Numbers only, in %.

The examples below pair each entry with its known result.
Any idea what its growth is? The compound is COc1ccc(/C=C2\CCC/C(=C\c3ccc(OC)c(OC)c3)C2=O)cc1OC
-2.18

And what about the compound Cc1ccc(C(=O)c2oc3ccc4c(C)cc(=O)oc4c3c2C)cc1 ?
29.4

And what about the compound COC(=O)C1(C)CCC[C@]2(C)[C@H]3C[C@H]4C(C(C)C)=C[C@]3(CC[C@@H]12)[C@H]1[C@@H]4[C@@H](OCC#CCN2CCOCC2)CC[C@@H]1OCC#CCN1CCOCC1 (some centres undefined) ?
61

And what about the compound COc1cc(/C=C2\Oc3cc(OCCCN4CCCC4)ccc3C2=O)cc(OC)c1 ?
71.1

And what about the compound O=c1oc2ccc(I)cc2c(=O)n1-c1ccc(I)cc1F ?
-28.6

Please look at the items below and tell me growth for each one, in order.
1. Cc1ccc(NC2=CC(=O)C(=O)c3ccccc32)c(C)c1
2. Cc1cccc2c(=O)c3c(sc12)c(NCCN)nc1ccccc13

1: -59.5; 2: -86.6

Please look at the items below and tell me growth for each one, in order.
1. CCOC(=O)c1sc(-c2ccc(OS(=O)(=O)C[C@]34CCC(CC3=O)C4(C)C)c(C=O)c2)nc1C
2. O=C(Nc1ccc(Cl)cc1F)c1cc(Br)ccc1O
3. O=C(c1ccccc1)N(CCc1ccc(Cl)cc1)C(=S)N(C(=O)c1ccccc1)c1ccccc1

25
-21.8
94.5

Please look at the items below and tell me growth for each one, in order.
1. Cc1ccccc1CNC(=O)C1CN(c2ccc(Cl)cc2)N(c2ccc(Cl)cc2)C1=O (centres undefined)
2. COc1cc(OC)cc(N2C(=O)N(Cc3ccc(C(C)(C)C)cc3)c3ccccc3S2(=O)=O)c1
3. COc1cccc(C2=NN3C(C2)c2ccccc2OC3c2ccc(/C=C3\SC(=O)NC3=O)cc2)c1 (centres undefined)
4. CCOC(=O)C1=CN(C)C=C(C(=O)OCC)C1c1cc(Br)c(OCC)c(OC)c1
5. COc1cc(/C=C/C(=O)c2c(C)nc3ccccc3c2/C=C/c2ccccc2)cc(OC)c1OC
6. O=c1c(-c2nc3ccccc3[nH]2)cc2ccccc2n1Cc1cn(Cc2ccc(N3CCOCC3)cc2)nn1
7. O=C1Nc2ccccc2/C1=C/c1cccs1
8. C[C@@H](C(=O)NCCCC#Cc1cnc(Nc2ccc(C#N)cc2)nc1NC1CC1)N(C)C(=O)/C=C/CN(C)C

[60.8, 90.6, 104, -48, 10.5, 79.2, 85.9, 52.2]

Any idea what its growth is? The compound is Cn1nc(C(C)(C)C)cc1NC(=O)Cc1ccc(/C=C2\C(=O)Nc3ccccc32)cc1
41
